The values you see were collected from paper PMC12518634.

# Test system: 783C-6
# assay.details: High-throughput drug screen, CellTiter-Glo viability, 72 h
# Assay type: cell-based, human
# assay.setup: Homo sapiens, 72 h
attribute.measured: EC50 (nM)

1) C/C=C1\NC(=O)[C@H]2CSSCC/C=C/[C@H](CC(=O)N[C@H](C(C)C)C(=O)N2)OC(=O)[C@H](C(C)C)NC1=O [Romidepsin, romidepsin] | 2.7

---

# Tested on: 783C-6
# assay.details: High-throughput drug screen, CellTiter-Glo viability, 72 h
# Format: cell-based, human
# assay.setup: 783C-6 cells, DSS of DSRT analysis
attribute.measured: DSS

1. Cn1cc(CNCC2CCN(c3ncc(C(=O)NO)cn3)CC2)c2ccccc21 [Quisinostat] | 26.9
2. O=C(O)CCCc1ccccc1 [Sodium Phenylbutyrate] | 0
3. CN(C)Cc1ccc(S(=O)(=O)n2ccc(/C=C/C(=O)NO)c2)cc1 [Resminostat] | 4.3
4. CCCCNNC(=O)c1ccc(Br)cc1 [UF010] | 2.1
5. Cc1cc(Nc2cc(N3CCN(C)CC3)nc(Sc3ccc(NC(=O)C4CC4)cc3)n2)[nH]n1 [Tozasertib] | 4.1
6. C=CC(=O)N1CC[C@H](n2nc(C#Cc3cc(OC)cc(OC)c3)c3c(N)ncnc32)C1 [TAS-120] | 0
7. CCCCN(Cc1ccc(C(=O)NO)cc1)C(=O)Nc1ccccc1 [Nexturastat A] | 0
8. CC(C)Oc1ccc(-c2c[nH]cc2CN(C)CCN)cc1 [MS023] | 3.9
9. COc1ccc(Cn2ccc3ccc(C(=O)NO)cc32)cc1 [PCI-34051] | 0

---

Reported SLOPE is given for each of the following compounds.
# System: 783C-6
# assay.details: High-throughput drug screen, CellTiter-Glo viability, 72 h
# Assay type: cell-based, human
# assay.setup: 783C-6 cells, slope of fitted dose-response curve
attribute.measured: SLOPE

1) CCCOc1ccc(/C=C2\SC(=O)NC2=O)cc1 [SMI-16a] | -0.5
2) Cc1cc(-c2ccc3nc(C4CCOCC4)n(CCOC(F)(F)F)c3c2)cn(C)c1=O | -0.3
3) O=C(NNc1ccccn1)c1ccccn1 | -2.5
4) C[C@@H]1O[C@@H](O[C@H]2[C@H](O[C@H]3[C@H](O[C@H]4CC[C@]5(C)[C@H]6CC=C7[C@@H]8CC(C)(C)CC[C@]8(C(=O)O)CC[C@@]7(C)[C@]6(C)CC[C@H]5C4(C)C)OC[C@H](O)[C@@H]3O)O[C@H](CO)[C@@H](O)[C@@H]2O)[C@H](O)[C@H](O)[C@H]1O | -2.5
5) CN1CCc2c(c3ccccc3n2Cc2ccc(C(=O)NO)cc2)C1.Cl [Tubastatin A HCl] | -1
6) COc1ccc(Cn2ccc3ccc(C(=O)NO)cc32)cc1 | -0.7
7) CN1CCc2c(c3ccccc3n2Cc2ccc(C(=O)NO)cc2)C1.O=C(O)C(F)(F)F [Tubastatin A TFA] | -0.1

---

# System: 783C-6
# assay.details: High-throughput drug screen, CellTiter-Glo viability, 72 h
# Format: cell-based, human
# Parameters: scale not given here
# assay.setup: 783C-6 DSRT analysis; area under the dose-response curve
Structures can show the parent of a compound that is named as a salt.
Each record's class is read off its AUC using these ranges: zone 1 = under 7, zone 2 = from 7 up to 20, zone 3 = 20 and over

1. Cc1sc2c(c1C)C(c1ccc(Cl)cc1)=N[C@@H](CC(=O)NCCCCCCCCNC(=O)COc1cccc3c1C(=O)N(C1CCC(=O)NC1=O)C3=O)c1nnc(C)n1-2 (stereo partly shown) [DBET6] | zone 3
2. CCOC(=O)CCNc1cc(N2CCc3ccccc3CC2)nc(-c2ccccn2)n1 [GSK J4 HCl] | zone 2
3. CCN(CCCOc1ccc2c(Nc3cc(CC(=O)Nc4cccc(F)c4)n[nH]3)ncnc2c1)CCOP(=O)(O)O [Barasertib] | zone 2
4. O=C(NO)c1cnc(NC2(c3cccc(F)c3)CCCCC2)nc1 [ACY-775] | zone 1
5. CC(C)(C)OC(=O)Nc1ccc(-c2cc(C(=O)NCCCCCCC(=O)NO)no2)cc1 [CAY10603] | zone 3
6. CCCC(CCC)C(=O)O [Divalproex Sodium] | zone 1
7. Nc1ccccc1NC(=O)CCCCCCC(=O)Nc1ccccc1 [BML-210] | zone 1
8. Nc1ccccc1NC(=O)c1cnccn1 [BG45] | zone 3

---

# Tested on: 783C-6
# assay.details: High-throughput drug screen, CellTiter-Glo viability, 72 h
# Assay type: cell-based, human
# assay.setup: 783C-6 cells, DSS of DSRT analysis
attribute.measured: DSS

1) CN1CCc2c(c3ccccc3n2Cc2ccc(C(=O)NO)cc2)C1.Cl [Tubastatin A HCl] | 0
2) CC(C)(CNC(=O)c1cccc(-c2noc(C(F)(F)F)n2)c1)c1coc(-c2ccccc2)n1 | 0
3) CCCCc1nc2cc(/C=C/C(=O)NO)ccc2n1CCN(CC)CC | 7.3
4) COc1ccccc1S(=O)(=O)Nc1ccc2c(c1)CN(C)C(=O)N2 | 0
5) CC(=O)O[C@H]1C(=O)[C@@]2(C)[C@H]([C@H](OC(=O)c3ccccc3)[C@]3(O)C[C@H](OC(=O)[C@H](O)[C@@H](NC(=O)c4ccccc4)c4ccccc4)C(C)=C1C3(C)C)[C@]1(OC(C)=O)CO[C@@H]1C[C@@H]2O | 21.1
6) Nc1cc(F)ccc1NC(=O)c1ccc(CNC(=O)/C=C/c2cccnc2)cc1 | 6.5
7) CN1CCc2c(c3ccccc3n2Cc2ccc(C(=O)NO)cc2)C1 | 0
8) COc1cc2nc(N3CCCC3)nc(NCCCCCN3CCCC3)c2cc1OC | 3.2

---

# Test system: 1405R3
# assay.details: High-throughput drug screen, CellTiter-Glo viability, 72 h
# Assay type: cell-based, human
# assay.setup: 1405R3 DSRT analysis; fitted dose-response curve; Min.Conc.tested 1, Max.Conc.tested 10000; CellTiter-Glo, 72 h; read-out: EC50
Reported EC50 is given for each of the following molecules.
attribute.measured: EC50 (nM)

1) O=C(CCc1ccc(CN[C@H](C(=O)OC2CCCC2)C2CCCCC2)cn1)NO | 1580
2) Cn1cc(-c2ccc(S(=O)(=O)n3ccc(/C=C/C(=O)Nc4ccccc4N)c3)cc2)cn1 | 1420
3) CCN1CCN(C(=O)Cc2ccc(Nc3ncc(F)c(Nc4ccc(C(=O)Nc5ccccc5Cl)cc4)n3)cc2)CC1 | 2810
4) N.N.[Cl][Pt][Cl] [Cisplatin] | 1650
5) Cc1cc(C)cc(C(=O)NOCCCCCC(=O)NO)c1 | 927

---

# Tested on: 783C-6
# assay.details: High-throughput drug screen, CellTiter-Glo viability, 72 h
# Format: cell-based, human
# Set-up: scale not given here
# assay.setup: 783C-6 DSRT analysis; area under the dose-response curve
# Protocol: The cells were seeded and incubated with a gradient of concentrations of drugs for 72 h, after which the cell viability was assessed (Supplementary Fig. 1a). […] We then quantified cell viability via the CellTiter-Glo luminescent assay according to the manufacturer’s protocol. Signal detection was carried out on a Synergy2 plate reader operated by Gen5 software (BioTek). […] Drug responses were evaluated on the basis of the drug sensitivity score (DSS), and a cutoff of ≥10 was used to define efficacy. […]
Reported AUC is given for each of the following molecules.
attribute.measured: AUC

1) Cc1cc(C)cc(C(=O)NOCCCCCC(=O)NO)c1 | 84.5
2) CC(=O)Nc1ccc(C(=O)Nc2ccc(F)cc2N)cc1 | 3.9
3) Nc1ccccc1NC(=O)c1ccc(CNC(=O)OCc2cccnc2)cc1 | 78
4) CN1CCN(c2ccc3nc(-c4c(N)c5c(F)cccc5[nH]c4=O)[nH]c3c2)CC1 | 37
5) O=C1[C@H](Cc2ccc(O)cc2)N2C(=O)CCN(C(=O)NCc3ccccc3)[C@H]2CN1Cc1cccc2ccccc12 | 16.9
6) Nc1ccn([C@@H]2O[C@H](CO)[C@@H](O)C2(F)F)c(=O)n1 | 82.5
7) Cc1cc(Cl)ccc1OCCCC(=O)NO | 2.9
8) CCC(CC)(NC(=O)C(C)C)C(=O)N[C@@H](CCCN=C(N)N)C(=O)NC1(C(=O)NC(c2ccc(F)cc2)c2ccc(F)cc2)CCCC1 | 18.6
9) O=C(NO)c1cccc(C(=O)NCCc2ccccc2)c1 | 14
10) COc1cc(Nc2ncc3c(n2)-c2ccc(Cl)cc2C(c2c(F)cccc2OC)=NC3)ccc1C(=O)O | 52.1
11) CCN(CC)Cc1ccc2cc(COC(=O)Nc3ccc(C(=O)NO)cc3)ccc2c1 | 81.1
12) C#Cc1cccc(Nc2ncnc3cc(OC)c(OCCCCCCC(=O)NO)cc23)c1 | 75.9
13) COc1ccc(-c2nc(N3CCOCC3)c3sc(CN(C)c4ncc(C(=O)NO)cn4)cc3n2)cn1 | 175.2
